- Procedure details: Microsomal stability (liver microsomal assay, mixed cofactors); predicted hepatic clearance
- Type: in vitro ADME
- Study conditions: liver microsomes 1.0 mg protein/mL (+UDPGA +NADPH), 1 μM analyte, 37° C.; scaled with human liver weight and hepatic blood flow 1.3 L/hr/kg
# label = bin(measured Predicted Hepatic Clearance (Pred. Cl.)), where bins are bucket 1 (below 3 mL/min/kg), bucket 2 (3 mL/min/kg to below 5 mL/min/kg), bucket 3 (5 mL/min/kg or more)

Known results for compounds:
- CC1(c2ccc(C#N)cc2F)Oc2cccc(-c3cc(F)c(Cc4nc5ccc(C(=O)O)cc5n4C[C@@H]4CCO4)cc3F)c2O1 (stereo partly shown) [Example 25]: bucket 2
- O=C(O)c1ccc2nc(Cc3c(F)cc(-c4cccc5c4CN(c4ccc(Cl)cc4F)C5)cc3F)n(C[C@@H]3CCO3)c2c1 [Example 71]: bucket 2
- CC1(c2ccc(Cl)cc2F)Oc2cccc(-c3cc(F)c(Cc4nc5ccc(C(=O)O)cc5n4C[C@@H]4CCO4)cc3F)c2O1 (single isomer, unassigned) [Example 43]: bucket 2
- CC1(c2ccc(Cl)cc2F)Oc2cccc(-c3cc(F)c(Cc4nc5ccc(C(=O)O)cc5n4C[C@@H]4CCO4)c(F)c3)c2O1 (stereo partly shown) [Example 22]: bucket 1
- CC1(c2ccc(Cl)cn2)Oc2cccc(-c3cc(F)c(Cc4nc5ccc(C(=O)O)cc5n4C[C@@H]4CCO4)c(F)c3)c2O1 (stereo partly shown) [Example 27]: bucket 1

## Task Hi there! Could you help me figure out the category for COCCn1c(Cc2c(F)cc(-c3cccc4c3OC3(c5ccc(Cl)cc5)CCCN43)cc2F)nc2ccc(C(=O)O)cc21 (stereo not shown) [Example 16] please?
## Result bucket 3

## Task Class for COCCn1c(Cc2c(F)cc(-c3c(F)ccc4c3OC(C)(c3ccc(Cl)cn3)O4)cc2F)nc2ccc(C(=O)O)cc21 (stereo not shown) [Example 100] ?
## Result bucket 3

## Task Input CC1(c2ccc(Cl)cn2)Oc2cccc(-c3cc(F)c(Cc4nc5ccc(C(=O)O)cc5n4CC4(CF)CC4)c(F)c3)c2O1 (stereo not shown) [Example 12] ; output its category
## Result bucket 2

## Task Please indicate the class for CC1(c2ccc(Cl)cc2F)Oc2cccc(-c3cc(F)c(Cc4nc5ccc(C(=O)O)cc5n4C[C@@H]4CCO4)c(F)c3)c2O1 (single isomer, unassigned) [Example 47] based on its Predicted Hepatic Clearance (Pred. Cl.).
## Result bucket 2

## Task Could you tell me which band COCCn1c(Cc2ccc(-c3cccc4c3OC(C)(c3ccc(Cl)cc3F)O4)[nH]c2=O)nc2ccc(C(=O)O)cc21 (stereo not shown) [Example 86] belongs to?
## Result bucket 1

## Task Which class does COCCn1c(Cc2ccc(-c3cccc4c3OC(c3ccccc3)O4)cc2F)nc2ccc(C(=O)O)cc21 (stereo not shown) [Example 32] fall in?
## Result bucket 3

----------
- Test target: GLP-1R (Homo sapiens (Human))
- Sequence (P43220 24-463): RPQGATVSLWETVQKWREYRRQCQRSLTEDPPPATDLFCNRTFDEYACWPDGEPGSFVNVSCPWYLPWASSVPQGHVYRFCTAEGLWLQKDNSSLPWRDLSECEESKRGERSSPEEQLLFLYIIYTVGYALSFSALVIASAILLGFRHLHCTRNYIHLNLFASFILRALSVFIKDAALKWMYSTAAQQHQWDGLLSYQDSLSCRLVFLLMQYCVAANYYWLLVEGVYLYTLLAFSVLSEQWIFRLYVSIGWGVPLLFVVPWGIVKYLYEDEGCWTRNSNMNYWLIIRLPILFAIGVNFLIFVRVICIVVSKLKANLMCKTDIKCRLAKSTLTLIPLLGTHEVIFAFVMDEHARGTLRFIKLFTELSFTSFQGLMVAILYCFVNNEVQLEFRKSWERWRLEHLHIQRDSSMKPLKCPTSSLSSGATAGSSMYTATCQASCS
- Procedure details: GLP-1R activation: cAMP increase in CHO cells stably expressing GLP-1R
- Assay type: cell-based
- Study conditions: cAMP increase, 10 point dose response, 30 minutes incubation at 37° C., read-out: EC50
- Protocol: GLP-1R activation by a compound of the present disclosure was quantified by measuring cAMP increase in CHO cells stably expressing GLP-1R (MultiSpan product #C1267-1a). […] The cells were then incubated overnight at 37° C., 5% CO2. […] 1% BSA (Rockland Immunochemicals product #BSA-1000)). Following the medium change, the cells were incubated for 1 hour at 37° C., 5% CO2. […]
Response field label: string, one of 1.0 (EC50 strictly below 0.5 nM) or 0.0.

Study these solved cases before continuing.
- CC1(c2ccc(Cl)cn2)Oc2cccc(-c3cc(F)c(Cc4nc5ccc(C(=O)O)cc5n4C[C@@H]4CCO4)cc3F)c2O1 (stereo partly drawn) [Example 29]: 1.0
- CC1(c2ccc(C#N)cc2F)Oc2cccc(-c3cc(F)c(Cc4nc5ccc(C(=O)O)cc5n4C[C@@H]4CCO4)cc3F)c2O1 (stereo partly drawn) [Example 25]: 1.0
- COCCn1c(Cc2cc(F)c(-c3cccc4c3OC(C)(c3ccc(Cl)cc3F)O4)cc2F)nc2ccc(-c3nn[nH]n3)cc21 (stereo not drawn) [Example 84]: 0.0
- CC1(c2ccc(Cl)cn2)Oc2cccc(-c3cc(F)c(Cc4nc5ccc(C(=O)O)cc5n4C[C@@H]4CCO4)c(F)c3)c2O1 (stereo partly drawn) [Example 27]: 0.0
- COCCn1c(Cc2c(F)cc(-c3cccc4c3OC(C)(c3ccc(Cl)cc3F)O4)cc2F)nc2ccc(C(=O)O)cc21 (stereo not drawn) [Example 19]: 0.0

## Task Is 0.5 nM strictly greater than the compound's reported EC50? compound: CC1(c2ccc(Cl)cn2)Oc2cccc(-c3cc(F)c(Cc4nc5ccc(C(=O)O)cc5n4C[C@@H]4CCO4)cc3F)c2O1 (single isomer, unassigned) [Example 45]
## Result 1.0
